# assay_target: human TREX1 (Homo sapiens)
# Construct: N-terminally His-Tev tagged full length human TREX1; made in house; host or cells: E. coli
# Sequence (Q9NSU2 1-314): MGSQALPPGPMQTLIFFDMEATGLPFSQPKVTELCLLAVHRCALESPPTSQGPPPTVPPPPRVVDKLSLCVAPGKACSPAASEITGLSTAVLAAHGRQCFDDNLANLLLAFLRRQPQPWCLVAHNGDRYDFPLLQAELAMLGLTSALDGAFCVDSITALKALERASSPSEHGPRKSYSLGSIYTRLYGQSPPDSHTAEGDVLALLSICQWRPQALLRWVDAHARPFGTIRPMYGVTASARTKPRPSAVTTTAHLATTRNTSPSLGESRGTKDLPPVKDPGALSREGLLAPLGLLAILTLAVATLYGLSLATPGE
# protocol_summary: TREX1 kinetics assays (TR-FRET association and dissociation with biotinylated probe)
# Assay type: binding
# condition_context: hTREX1, 25° C., global fit Kintek Explorer
measurement_kind: koff
Number first, unit second.

The measured koff that CC(c1nc(C(=O)Nc2cnoc2)c(O)c(=O)n1C)C(c1ccccc1)c1ccc(Cl)cc1C#N (single isomer, unassigned) [Example 9 Isomer 4] showed for human TREX1 (Homo sapiens) is 2.07e-05 s⁻¹

The measured koff that CC(c1nc(C(=O)Nc2cnoc2)c(O)c(=O)n1C)C(c1ccccc1)c1ccccc1 (single isomer, unassigned) [Example 1 Isomer 2] showed for human TREX1 (Homo sapiens) is 0.000192 s⁻¹

The measured koff that CC(c1nc(C(=O)Nc2cnoc2)c(O)c(=O)n1C)C(c1ccccc1)c1cc(F)ccc1C#N (single isomer, unassigned) [Example 6 Isomer 4] showed for human TREX1 (Homo sapiens) is 3.37e-05 s⁻¹

The measured koff that CC(c1nc(C(=O)Nc2cnoc2)c(O)c(=O)n1C)C(c1ccccc1Cl)c1ccccc1C#N (single isomer, unassigned) [Example 10 Isomer 1] showed for human TREX1 (Homo sapiens) is 3.15e-05 s⁻¹

The measured koff that CC(c1nc(C(=O)Nc2cnoc2)c(O)c(=O)n1C)C(c1ccccc1C#N)c1ccccc1C#N (single isomer, unassigned) [Example 4 Isomer 2] showed for human TREX1 (Homo sapiens) is 3.83e-05 s⁻¹

The measured koff that C[C@H](c1nc(C(=O)Nc2cnoc2)c(O)c(=O)n1C)C(c1ccccc1Cl)c1ccccc1Cl (single isomer, unassigned) [Example 15 Isomer 1] showed for human TREX1 (Homo sapiens) is 4.77e-05 s⁻¹

The measured koff that C[C@H](c1nc(C(=O)Nc2cnoc2)c(O)c(=O)n1C)[C@H](c1ccccc1)c1ccccc1Cl (single isomer, unassigned) [Example 2 Isomer 3] showed for human TREX1 (Homo sapiens) is 5.48e-05 s⁻¹

The measured koff that CC(c1nc(C(=O)Nc2cnoc2)c(O)c(=O)n1C)C(c1ccccc1)c1cc(Cl)ccc1C#N (single isomer, unassigned) [Example 8 Isomer 2] showed for human TREX1 (Homo sapiens) is 4.17e-05 s⁻¹

The measured koff that CC(c1nc(C(=O)Nc2cnoc2)c(O)c(=O)n1C)C(c1ccccc1)c1ccccc1C#N (single isomer, unassigned) [Example 3 Isomer 4] showed for human TREX1 (Homo sapiens) is 3.6e-05 s⁻¹

The measured koff that CC(c1nc(C(=O)Nc2cnoc2)c(O)c(=O)n1C)C(c1cc(F)cc(F)c1)c1ccccc1C#N (single isomer, unassigned) [Example 11 Isomer 3] showed for human TREX1 (Homo sapiens) is 1.92e-05 s⁻¹
